B1: TMEM175 (parent)
chain: SCTIIFLASIFQLAMWTTALLHQA

# Variants of: B1
# ASSAY_SUMMARY: protein stability index of a GFP-peptide fusion (GPS, HEK-293T) (PSI 1-6); higher = more stable;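 note: lentivirally expressed fusions sorted by FACS into six bins by GFP to DsRed ratio, PSI derived from sequencing read proportions per bin multiplied by bin number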
# SETTINGS: c terminus: a fixed tail appended
METRIC_NAME: protein stability index
// return just the number, without any unit appended

Find the recorded protein stability index belonging to SCTIIFLASDFQLAMWTTALLHQA and report it. 1.94

Next up: SCTIIFLASIFQLFMWTTALLHQA 2.76

Next up: SCTIIFLASIFQLAMRTTALLHQA 2.51

Next up: SCTIIFLASIFQLAMCTTALLHQA 3.44

Next up: SCTIIFLASIFQLAMWTTALLHPA 3

Attribution: the supplement of paper PMC10567573
